Measured Target: TrkB WT (Homo sapiens, UniProt Q16620)
Sequence (Q16620 32-822): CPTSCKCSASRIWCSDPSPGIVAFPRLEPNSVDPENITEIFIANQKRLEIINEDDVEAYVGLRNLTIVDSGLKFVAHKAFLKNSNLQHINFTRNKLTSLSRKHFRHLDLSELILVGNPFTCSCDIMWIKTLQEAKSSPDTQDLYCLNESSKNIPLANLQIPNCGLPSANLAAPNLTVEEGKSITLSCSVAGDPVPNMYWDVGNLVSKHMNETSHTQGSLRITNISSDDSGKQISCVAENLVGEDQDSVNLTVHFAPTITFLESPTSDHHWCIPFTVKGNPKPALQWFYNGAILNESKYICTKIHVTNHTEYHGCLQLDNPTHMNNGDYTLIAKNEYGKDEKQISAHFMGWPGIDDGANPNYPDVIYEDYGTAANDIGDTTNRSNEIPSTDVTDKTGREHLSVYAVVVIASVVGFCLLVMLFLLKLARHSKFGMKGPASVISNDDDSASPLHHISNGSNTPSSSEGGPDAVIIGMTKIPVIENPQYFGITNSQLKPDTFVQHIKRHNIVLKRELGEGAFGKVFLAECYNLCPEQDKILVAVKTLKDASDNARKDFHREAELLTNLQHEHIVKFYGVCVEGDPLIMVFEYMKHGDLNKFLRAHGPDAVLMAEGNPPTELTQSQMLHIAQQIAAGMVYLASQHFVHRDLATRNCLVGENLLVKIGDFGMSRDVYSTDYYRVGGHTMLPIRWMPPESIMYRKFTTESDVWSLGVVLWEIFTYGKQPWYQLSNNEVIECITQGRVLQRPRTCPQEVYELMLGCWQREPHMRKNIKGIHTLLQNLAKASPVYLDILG
Protocol Summary: Trk enzyme assay ([33P] incorporation into poly-EAY)
Format: biochemical
Study Conditions: wild-type TrkB enzyme; 22° C., 60 minutes
Measure Name: IC50 (nM)

Record excerpt, results attached:
CN(C)C(=O)Nc1cnn2ccc(N3CCC[C@@H]3c3cc(F)ccc3F)nc12 = 5
CONC(=O)c1cnn2ccc(N3CCC[C@@H]3c3cc(F)cnc3OC)nc12 = 4.4
O=C1OCCOc2ncc(F)cc2[C@H]2CCCN2c2ccn3ncc1c3n2 = 2.9
O=C1NC[C@@H](O)COc2ncc(F)cc2[C@H]2CCCN2c2ccn3ncc1c3n2 = 3.6

A. NC(=O)c1cnn2ccc(N3CCC[C@@H]3c3cc(F)ccc3F)nc12
B. CC1(O)CN(C(=O)Nc2cnc3ccc(N4CCC[C@@H]4c4cc(F)ccc4F)nn23)C1
C. CNC(=O)Nc1cnc2ccc(N3CCC[C@@H]3c3cc(F)ccc3F)nn12
D. O=C(Nc1cnn2ccc(N3CCC[C@@H]3c3cccc(F)c3)nc12)N1CC(O)C1
Ask: Reorder: IC50, max to min. Note for the reader: the ranking is given by listing the labels in the order requested.
Reply: D, C, B, A
(D: 19 nM, C: 10.6 nM, B: 7 nM, A: 3.3 nM)

I. O=C1NCCCOc2ncc(F)cc2[C@H]2CCCN2c2ccn3ncc1c3n2
II. CN(CCO)C(=O)Nc1cnc2ccc(N3CCC[C@@H]3c3cc(F)ccc3F)nn12
III. NC(=O)Nc1cnc2ccc(N3CCC[C@@H]3c3cc(F)ccc3F)nn12
Ask: Reorder: IC50, max to min. Note for the reader: the ranking is given by listing the labels in the order requested.
Reply: III, II, I

a. O=C1NCCCOc2cccc(n2)[C@H]2CCCN2c2ccn3ncc1c3n2
b. CC1(O)CN(C(=O)Nc2cnn3ccc(N4CCC[C@@H]4c4cc(F)ccc4Cl)nc23)C1
Ask: Among a and b , which shows a numerically higher IC50 result? Give the label under which the chosen entry appears.
Reply: b
